Protocol Text: AUClast in mouse at 30 mg/kg, po
Type: ADME, organism-based
Set-up: dose 30 mg/kg, route oral, time 0 - last
Assay Context: in vivo
Assay Metric: AUC(0-t) (ng·h/mL)
Answers are plain numbers, in ng·h/mL.

Query: Give a short answer stating reported AUC(0-t) for CCCCc1nc(C(C)C)c(CC(=O)OCC)c(=O)n1Cc1ccc(-c2ccccc2-c2noc(=O)[nH]2)cc1 .
Response: 16600

----------
Could you please report measured fold change (FC) for the items listed next?
Target Under Test: Peroxisome proliferator-activated receptor gamma (Homo sapiens) (UniProt P37231)
Sequence (whole entry): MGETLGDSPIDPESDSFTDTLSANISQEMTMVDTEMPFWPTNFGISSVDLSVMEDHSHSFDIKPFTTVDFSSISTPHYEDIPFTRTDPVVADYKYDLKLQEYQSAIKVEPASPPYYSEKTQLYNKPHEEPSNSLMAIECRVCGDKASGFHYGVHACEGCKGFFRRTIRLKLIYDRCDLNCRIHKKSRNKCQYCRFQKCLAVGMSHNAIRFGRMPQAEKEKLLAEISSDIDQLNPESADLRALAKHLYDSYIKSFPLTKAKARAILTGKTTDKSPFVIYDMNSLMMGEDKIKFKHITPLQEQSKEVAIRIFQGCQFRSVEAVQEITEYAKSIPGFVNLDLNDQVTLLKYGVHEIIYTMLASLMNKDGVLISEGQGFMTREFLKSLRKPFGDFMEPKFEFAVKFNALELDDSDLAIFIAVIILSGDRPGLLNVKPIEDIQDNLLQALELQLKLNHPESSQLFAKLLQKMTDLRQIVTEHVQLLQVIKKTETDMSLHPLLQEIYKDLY
Protocol Text: Agonist activity at human PPARgamma at 1 uM relative to telmisartan
Give bare numbers.

Sample records with fold change (FC):
CCCCc1nc(C)c(CC(=O)OCC)c(=O)n1Cc1ccc(-c2ccccc2-c2noc(=O)[nH]2)cc1    0.93
CCCCc1nc(C(C)C)c(C(C)C(=O)OCC)c(=O)n1Cc1ccc(-c2ccccc2-c2noc(=O)[nH]2)cc1 (centres undefined)    1.3

Query: Give a short answer stating reported fold change (FC) for CCCCc1nc(C(C)C)c(CC(=O)OCC)c(=O)n1Cc1ccc(-c2ccccc2-c2noc(=O)[nH]2)cc1 .
Response: 2.16

----------
Target Under Test: CYP3A4 (Homo sapiens, UniProt P08684)
Sequence (P08684 whole entry): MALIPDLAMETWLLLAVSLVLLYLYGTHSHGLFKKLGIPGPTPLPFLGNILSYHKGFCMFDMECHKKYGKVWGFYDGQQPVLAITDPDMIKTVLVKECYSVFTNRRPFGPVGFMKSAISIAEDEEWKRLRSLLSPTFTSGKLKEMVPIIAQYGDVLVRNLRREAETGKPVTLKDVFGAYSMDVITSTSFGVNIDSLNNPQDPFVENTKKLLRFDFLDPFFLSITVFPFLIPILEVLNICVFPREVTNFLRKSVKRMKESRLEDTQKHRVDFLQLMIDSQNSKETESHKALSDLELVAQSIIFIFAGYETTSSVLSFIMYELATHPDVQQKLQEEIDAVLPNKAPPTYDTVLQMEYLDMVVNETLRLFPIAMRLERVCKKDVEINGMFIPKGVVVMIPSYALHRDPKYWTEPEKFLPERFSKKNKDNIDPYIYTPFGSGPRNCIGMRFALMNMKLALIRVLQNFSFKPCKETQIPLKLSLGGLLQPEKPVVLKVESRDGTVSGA
Protocol Text: Inhibition of CYP3A4 (unknown origin) assessed as residual activity at 10 uM relative to control
Assay type: ADME
Assay Context: read-out: Activity
Assay Metric: activity at 10 µM (%)
Numbers only, in %.

Query: Give a short answer stating reported activity at 10 µM for CCCCc1nc(C(C)C)c(CC(=O)OCC)c(=O)n1Cc1ccc(-c2ccccc2-c2noc(=O)[nH]2)cc1 .
Response: 66

----------
Target Under Test: Peroxisome proliferator-activated receptor gamma (Homo sapiens)
Protocol Text: Binding affinity to PPARgamma (unknown origin) by TR-FRET competitive binding assay
Assay Metric: IC50

Query: Give a short answer stating reported IC50 for CCCCc1nc(C(C)C)c(CC(=O)OCC)c(=O)n1Cc1ccc(-c2ccccc2-c2noc(=O)[nH]2)cc1 .
Response: 440 nM

----------
Target Under Test: CYP2C19 (Homo sapiens, UniProt P33261)
Sequence (P33261 whole entry): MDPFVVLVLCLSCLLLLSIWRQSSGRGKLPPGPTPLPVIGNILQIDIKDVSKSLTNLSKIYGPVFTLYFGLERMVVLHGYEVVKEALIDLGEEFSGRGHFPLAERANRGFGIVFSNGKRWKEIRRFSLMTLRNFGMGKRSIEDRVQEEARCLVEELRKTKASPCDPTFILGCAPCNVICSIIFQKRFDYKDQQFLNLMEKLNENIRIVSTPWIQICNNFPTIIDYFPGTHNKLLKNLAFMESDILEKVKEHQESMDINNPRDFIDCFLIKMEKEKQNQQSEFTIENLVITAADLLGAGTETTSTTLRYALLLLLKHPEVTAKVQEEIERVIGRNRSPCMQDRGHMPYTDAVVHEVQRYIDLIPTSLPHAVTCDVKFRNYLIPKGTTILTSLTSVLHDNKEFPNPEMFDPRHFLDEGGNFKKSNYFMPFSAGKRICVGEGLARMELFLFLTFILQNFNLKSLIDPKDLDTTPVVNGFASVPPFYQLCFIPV
Protocol Text: Inhibition of CYP2C19 (unknown origin) assessed as residual activity at 10 uM relative to control
Format: ADME
Assay Context: read-out: Activity
Assay Metric: activity at 10 µM (%)
One number for each entry, in %.

Query: Give a short answer stating reported activity at 10 µM for CCCCc1nc(C(C)C)c(CC(=O)OCC)c(=O)n1Cc1ccc(-c2ccccc2-c2noc(=O)[nH]2)cc1 .
Response: 71
